This collection of values is drawn from PubChem BioAssay (EPA / NIEHS).

# Read-out: Thrombomodulin, THBD (gene 7056)
# measurement_protocol: BSK_3C_Thrombomodulin: BioMAP Diversity Plus: 3C Assay for Thrombomodulin Biomarker Activity (AID 2283029)
# test_parameters: primary human endothelial cells (HUVEC); actives raise or lower the signal
Activity calls are given as the source filed them. How the source made its calls: active means hit-call score of the fitted dose curve at least 0.9, where 1 is the maximum; inactive means score below 0.9.
Outcome codes: true (1) = active, false (0) = inactive

molecule=CC(=O)Nc1ccc(N=Nc2cc(C)ccc2O)cc1 label_class="true (1)"
molecule=OCC(F)(F)C(F)(F)C(F)(F)C(F)(F)C(F)(F)C(F)F label_class="false (0)"
molecule=C=CC/C=C/C/C=C/C/C=C/C label_class="false (0)"
molecule="O=C(O)C(F)(OC(F)(F)C(F)(OC(F)(F)C(F)(F)C(F)(F)F)C(F)(F)F)C(F)(F)F (stereo not drawn)" label_class="false (0)"
molecule=Oc1ccc(Nc2ccccc2)cc1 label_class="false (0)"
molecule=OCC(F)(F)C(F)(F)C(F)(F)C(F)(F)C(F)(F)C(F)(F)F label_class="false (0)"
molecule=O=C(O)C=C(C(F)(F)F)C(F)(F)F label_class="false (0)"
molecule=C=C(C)C(=O)OCCC(F)(F)C(F)(F)C(F)(F)C(F)(F)C(F)(C(F)(F)F)C(F)(F)F label_class="false (0)"
molecule=O=S(=O)(OCC(F)F)C(F)(F)F label_class="false (0)"
molecule=FC(F)(F)C(F)(F)C(F)(F)C(F)(F)C(F)(F)C(F)(F)C(F)(F)C(F)(F)CCS label_class="false (0)"
molecule="FC(F)(F)C(F)(F)C(F)(F)C(F)(F)C(F)(F)C(F)(F)CC1CO1 (stereo not drawn)" label_class="false (0)"
molecule=CCCCCCCOC(=O)c1ccccc1C(=O)OCCCCCCC label_class="false (0)"
molecule=CCCCNc1ccccc1 label_class="false (0)"
molecule=O=C(Cl)C(F)(F)C(F)(F)C(F)(F)C(F)(F)C(F)(F)C(F)(F)C(F)(F)C(F)(F)F label_class="false (0)"
molecule=Cc1ccc(S(=O)(=O)OCC(F)(F)C(F)(F)C(F)(F)C(F)(F)C(F)(F)C(F)F)cc1 label_class="false (0)"
molecule=FC(F)(F)C(F)(F)C(F)(F)C(F)(F)C(F)(F)C(F)(F)C(F)(F)I label_class="false (0)"
molecule=CCc1ccc(C(c2ccc(CC)cc2)C(Cl)Cl)cc1 label_class="false (0)"
molecule=CCCCCCOC(=O)c1ccccc1O label_class="false (0)"
molecule=FC(F)(I)C(F)(F)C(F)(F)C(F)(F)I label_class="false (0)"
molecule=O=C(O)C(F)(F)C(F)(F)C(F)(F)C(F)(F)C(F)(F)C(F)(F)C(F)(F)C(F)(F)C(F)(F)C(F)(F)C(F)(F)C(F)(F)C(F)(F)F label_class="false (0)"
molecule=O=C(CC(=O)C(F)(F)C(F)(F)F)C(F)(F)F label_class="false (0)"
molecule="CC(CCl)OP(=O)(OC(C)CCl)OC(C)CCl (stereo not drawn)" label_class="false (0)"
molecule=C=CC(=O)OCC(F)(F)C(F)(F)C(F)(F)C(F)(F)COC(=O)C=C label_class="false (0)"
